Reference source: paper PMC6455008

MEASUREMENT TARGET: OsD14 (Oryza sativa subsp. japonica, UniProt Q10QA5)
Sequence (Q10QA5 1-318): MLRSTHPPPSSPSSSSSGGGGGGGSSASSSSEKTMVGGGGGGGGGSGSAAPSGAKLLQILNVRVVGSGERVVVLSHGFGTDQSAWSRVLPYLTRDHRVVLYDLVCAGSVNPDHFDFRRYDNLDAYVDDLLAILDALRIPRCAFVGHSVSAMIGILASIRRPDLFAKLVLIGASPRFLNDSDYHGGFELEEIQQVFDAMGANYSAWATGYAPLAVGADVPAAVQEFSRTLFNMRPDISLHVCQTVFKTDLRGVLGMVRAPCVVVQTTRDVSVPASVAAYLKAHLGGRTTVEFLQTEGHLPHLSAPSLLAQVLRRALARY
pIC50: −log10 of the molar value.
Listing: pIC50 of selected compounds
OUTCOME MEASURE: pIC50

INSERT INTO measurements (compound, outcome_measure, recorded_result) VALUES
  ('CC1=C(C)C(O/C=C(\C)C=O)OC1=O (stereo not shown) [AR8, reference compound]', 'pIC50', 5.31),
  ('CC1=C[C@H](O/C=C2/C(=O)O[C@@H]3c4ccccc4C[C@H]23)OC1=O [GR24, reference compound]', 'pIC50', 5.91),
  ('COC(=O)/C=C/C(C)=C/OC1C=C(C)C(=O)O1 (stereo not shown) [MP26]', 'pIC50', 5.68),
  ('CC1=CC(O/C=C(\C)C=O)OC1=O (stereo not shown) [MP13]', 'pIC50', 5.46);

---

MEASUREMENT TARGET: ShHTL7 (Striga hermonthica)
Sequence (A0A0M3PNA2 1-271): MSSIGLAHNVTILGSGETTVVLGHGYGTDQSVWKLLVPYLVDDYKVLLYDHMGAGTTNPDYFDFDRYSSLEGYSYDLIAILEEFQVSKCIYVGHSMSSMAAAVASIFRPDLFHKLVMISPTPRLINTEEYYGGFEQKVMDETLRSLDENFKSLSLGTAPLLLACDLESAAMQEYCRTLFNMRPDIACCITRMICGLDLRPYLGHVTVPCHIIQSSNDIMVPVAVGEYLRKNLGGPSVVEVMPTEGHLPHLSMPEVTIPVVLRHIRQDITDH
EXPERIMENTAL DETAILS: In vitro YLG hydrolysis competition assay, ShHTL7
Type: biochemical
Protocol: Protein expression and purification of ShHTL7 and Oryza sativa D14 (OsD14) was carried out according to the procedure described earlier ([Jamil et al., 2018]). […] Fluorescent intensity was measured by spectraMax i5 (Molecular Devices) at excitation by 480 nm and detection by 520 nm. The change in fluorescence observed over the course of 1 h of YLG in buffer without protein was subtracted from the data collected in presence of protein. IC50 values were calculated by GraphPad (Prism 7).
OUTCOME MEASURE: IC50 (nM)

INSERT INTO assay_data (molecule, measurement_target, outcome_measure, recorded_result) VALUES
  ('CC1=C[C@H](O/C=C2/C(=O)O[C@@H]3c4ccccc4C[C@H]23)OC1=O [GR24, reference compound]', 'ShHTL7 (Striga hermonthica)', 'IC50', 1640);

---

System: Striga hermonthica
EXPERIMENTAL DETAILS: Striga emergence in pots under greenhouse conditions (suicidal germination, rice host)
Format: in vivo
CONDITION SUMMARY: formulated 1.0 μM, negative = decrease, 8 WAS
OUTCOME MEASURE: percent decrease in Striga hermonthica emergence over mock, 8 WAS (%)

INSERT INTO assay_data (compound, recorded_result) VALUES
  ('CC1=CC(O/C=C(\C)C=O)OC1=O (stereo not shown)', -56),
  ('COC(=O)/C=C/C(C)=C/OC1C=C(C)C(=O)O1 (stereo not shown)', -76),
  ('CC1=C[C@H](O/C=C2/C(=O)O[C@@H]3c4ccccc4C[C@H]23)OC1=O [GR24, reference compound]', -85),
  ('CC1=C(C)C(O/C=C(\C)C=O)OC1=O (stereo not shown) [AR8, reference compound]', -4);
